- assayed-target: Estrogen receptor beta (Homo sapiens)
- Sequence (Q92731 whole entry): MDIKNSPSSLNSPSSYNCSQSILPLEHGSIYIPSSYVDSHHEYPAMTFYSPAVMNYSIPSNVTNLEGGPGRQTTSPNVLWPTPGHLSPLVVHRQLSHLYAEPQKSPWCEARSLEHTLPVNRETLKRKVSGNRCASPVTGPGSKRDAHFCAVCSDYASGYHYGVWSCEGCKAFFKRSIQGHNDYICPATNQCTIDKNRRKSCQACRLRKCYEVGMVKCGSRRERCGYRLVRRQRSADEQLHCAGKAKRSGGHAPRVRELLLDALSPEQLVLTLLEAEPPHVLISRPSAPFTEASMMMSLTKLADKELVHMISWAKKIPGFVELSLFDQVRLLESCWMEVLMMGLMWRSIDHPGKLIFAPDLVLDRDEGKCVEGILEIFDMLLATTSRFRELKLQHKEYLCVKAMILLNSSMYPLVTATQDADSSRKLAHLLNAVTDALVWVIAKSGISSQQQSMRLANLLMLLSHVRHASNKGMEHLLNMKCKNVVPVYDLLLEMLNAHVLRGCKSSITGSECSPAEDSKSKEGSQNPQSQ
- method: Percent activation of estrogen receptor beta in luciferase assay at 10 uM

{"sample-smiles": "CN(C)CCOc1ccc([C@H]2N=CN[C@H]2c2ccc(O)cc2Cl)c(Cl)c1", "units-label": "%", "Activation": 75}
{"sample-smiles": "Oc1ccc([C@@H]2N=CN[C@@H]2c2ccc(OCCN3CCCCC3)cc2)cc1", "units-label": "%", "Activation": 26}
{"sample-smiles": "Oc1ccc([C@@H]2N=CN[C@@H]2c2ccc(OCCN3CCCC3)cc2Cl)c(Cl)c1", "units-label": "%", "Activation": 105}
{"sample-smiles": "CN(C)CCOc1ccc([C@H]2N=CN[C@H]2c2ccc(O)cc2)cc1", "units-label": "%", "Activation": 36}
{"sample-smiles": "CCC1=N[C@H](c2ccc(OCCN3CCCCC3)cc2)[C@H](c2ccc(O)cc2)N1", "units-label": "%", "Activation": 95}
{"sample-smiles": "CCC1=N[C@H](c2ccc(OCCN3CCCCC3)cc2Cl)[C@H](c2ccc(O)cc2Cl)N1", "units-label": "%", "Activation": 92}
{"sample-smiles": "Oc1cc(Cl)c([C@@H]2N=CN[C@@H]2c2ccc(OCCN3CCCCC3)cc2Cl)c(Cl)c1", "units-label": "%", "Activation": 103}
{"sample-smiles": "Oc1ccc([C@@H]2N=CN[C@@H]2c2ccc(OCCN3CCCCC3)cc2Cl)c(Cl)c1", "units-label": "%", "Activation": 60}

###

- assayed-target: Estrogen receptor (Homo sapiens, UniProt P03372)
- Sequence (P03372 whole entry): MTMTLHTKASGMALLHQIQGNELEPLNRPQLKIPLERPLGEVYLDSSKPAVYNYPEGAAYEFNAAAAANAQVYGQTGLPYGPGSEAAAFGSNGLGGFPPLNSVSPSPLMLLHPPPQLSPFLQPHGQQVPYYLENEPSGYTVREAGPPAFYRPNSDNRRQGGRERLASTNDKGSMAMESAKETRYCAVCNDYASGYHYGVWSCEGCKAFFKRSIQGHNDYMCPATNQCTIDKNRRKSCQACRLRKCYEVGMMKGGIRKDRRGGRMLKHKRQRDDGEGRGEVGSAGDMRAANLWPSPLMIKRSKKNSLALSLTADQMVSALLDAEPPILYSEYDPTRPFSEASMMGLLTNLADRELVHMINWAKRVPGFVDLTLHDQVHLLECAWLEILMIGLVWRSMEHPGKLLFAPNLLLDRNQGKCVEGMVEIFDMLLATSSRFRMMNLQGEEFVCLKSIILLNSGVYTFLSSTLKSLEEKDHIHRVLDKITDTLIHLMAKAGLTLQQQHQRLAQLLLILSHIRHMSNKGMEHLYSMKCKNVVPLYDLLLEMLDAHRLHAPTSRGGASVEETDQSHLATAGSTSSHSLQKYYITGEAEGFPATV
- method: Inhibition of estrogen receptor alpha in MCF-7-2a cells at 10 uM
pIC50: −log10 of the molar value.

{"sample-smiles": "CCC1=N[C@H](c2ccc(OCCN3CCCCC3)cc2)[C@H](c2ccc(O)cc2)N1", "pIC50": 7.42}

###

- assayed-target: Estrogen receptor (Homo sapiens)
- method: Effective concentration against estrogen receptor alpha of MCF-7-2a cells

{"sample-smiles": "Oc1cc(Cl)c([C@@H]2N=CN[C@@H]2c2ccc(OCCN3CCCCC3)cc2Cl)c(Cl)c1", "EC50": "85 nM"}
{"sample-smiles": "Oc1ccc([C@@H]2N=CN[C@@H]2c2ccc(OCCN3CCCCC3)cc2Cl)c(Cl)c1", "EC50": "1700 nM"}
{"sample-smiles": "CN(C)CCOc1ccc([C@H]2NC=N[C@H]2c2ccc(O)cc2Cl)c(Cl)c1", "EC50": "1500 nM"}
{"sample-smiles": "CN(C)CCOc1ccc([C@H]2N=CN[C@H]2c2ccc(O)cc2)cc1", "EC50": "3470 nM"}
{"sample-smiles": "Oc1ccc([C@@H]2N=CN[C@@H]2c2ccc(OCCN3CCCC3)cc2Cl)c(Cl)c1", "EC50": "1820 nM"}
